# experiment.notes: Saturation solubility of tacrolimus in different solvents
# Assay type: physicochemical
# run.parameters: organic solvent or mixture, thermodynamic from solid; DMSO; room temperature
quantity: solubility

IN: Record request: solubility value, item `C=CC[C@@H]1/C=C(\C)C[C@H](C)C[C@H](OC)[C@H]2O[C@@](O)(C(=O)C(=O)N3CCCC[C@H]3C(=O)O[C@H](/C(C)=C/[C@@H]3CC[C@@H](O)[C@H](OC)C3)[C@H](C)[C@@H](O)CC1=O)[C@H](C)C[C@@H]2OC`
OUT: 582 mg/mL

---

# experiment.notes: Saturation solubility of tacrolimus in different solvents
# Format: physicochemical
# run.parameters: thermodynamic from solid; Water; room temperature
quantity: solubility
Answer shape: numeric part, then the unit.

IN: Record request: solubility value, item `C=CC[C@@H]1/C=C(\C)C[C@H](C)C[C@H](OC)[C@H]2O[C@@](O)(C(=O)C(=O)N3CCCC[C@H]3C(=O)O[C@H](/C(C)=C/[C@@H]3CC[C@@H](O)[C@H](OC)C3)[C@H](C)[C@@H](O)CC1=O)[C@H](C)C[C@@H]2OC`
OUT: 0.76 µg/mL
